Answer each item with its documented Population Mitochondria Different-Phenotype (%).
Test system: Fibroblast
Assay: Multiplex assay against human fibroblast
Format: toxicity, cell-based
Conditions: 48 h, 10 µM, compound concentration 10 uM, replicate 1
Enter your answer as a number in %; do not include the unit.

Query (molecule): O=C1NCN(c2ccccc2)C12CCN(CCCOc1ccc(F)cc1)CC2 [SPIRAMIDE] ; field requested: Population Mitochondria Different-Phenotype (%)
47

Using the record for CN1CCC[C@@H]1CCO[C@](C)(c1ccccc1)c1ccc(Cl)cc1.O=C(O)/C=C/C(=O)O [CLEMASTINE FUMARATE] , report its Population Mitochondria Different-Phenotype (%).
72

Can you share its Population Mitochondria Different-Phenotype (%)? I mean this molecule: CN1CCN(CCOc2cc(OC3CCOCC3)c3c(Nc4c(Cl)ccc5c4OCO5)ncnc3c2)CC1 [SARACATINIB]
13

I would be grateful if you could share the reported Population Mitochondria Different-Phenotype (%) for CC[C@H](C)C(=O)O[C@H]1C[C@@H](C)C=C2C=C[C@H](C)[C@H](CC[C@@H]3C[C@@H](O)CC(=O)O3)[C@H]21 [LOVASTATIN] .
3

Reported Population Mitochondria Different-Phenotype (%) for CN1CCCC(n2nc(Cc3ccc(Cl)cc3)c3ccccc3c2=O)CC1.Cl (stereo unspecified) [AZELASTINE HYDROCHLORIDE] : what is it?
34

Need Population Mitochondria Different-Phenotype (%) of Cc1nc(-c2ccc(-c3ccc(C(=O)N4CCc5cc6c(cc54)C4(CCN(C)CC4)CO6)cc3)c(C)c2)no1 [SB-224289] , thanks.
50

# input molecule: CCOCCn1cc(C(=O)Nc2ccc(-n3nc(-c4cccnc4)cc3C(F)(F)F)cn2)ccc1=O [BI 1935] ; wanted: its Population Mitochondria Different-Phenotype (%)
40

State the recorded Population Mitochondria Different-Phenotype (%) for this entry: CNc1nc(NCc2ccc(NS(C)(=O)=O)cc2Cl)cc(-c2ccccn2)n1
12

I would be grateful if you could share the reported Population Mitochondria Different-Phenotype (%) for CC(C)NCC(O)COc1ccc(CCOCC2CC2)cc1.Cl (stereo unspecified) [BETAXOLOL HYDROCHLORIDE] .
4

GET /values?readout=Population Mitochondria Different-Phenotype (%)&item= CC(C)(O)CNc1ncc(-c2ccnc(Nc3ccnc(Cl)c3)n2)c(CC2CC2)n1
41

Name the reported Population Mitochondria Different-Phenotype (%) value associated with the molecule c1cn2cc(-c3ccc4cn[nH]c4c3)nc(Nc3ccc(N4CCOCC4)cc3)c2n1 [ENTOSPLETINIB]
0

Recorded Population Mitochondria Different-Phenotype (%) for CN1CCN(c2ccc(OC(F)(F)F)c(Nc3ncc4c(n3)-c3c(c(C(N)=O)nn3CCO)CC4)c2)CC1 [ONVANSERTIB] , please?
9

Which Population Mitochondria Different-Phenotype (%) value is on record for Cl.N#Cc1ccc2[nH]cc(CCCCN3CCN(c4ccc5oc(C(N)=O)cc5c4)CC3)c2c1 [VILAZODONE HYDROCHLORIDE] ?
21

For CNCc1ccccc1-c1csc([C@H](C)Nc2nc(C)nc3cc(OC)c(OC)cc23)c1 [BAY-294] , what is its reported Population Mitochondria Different-Phenotype (%)?
52

Recorded Population Mitochondria Different-Phenotype (%) for NC(=O)Nc1cc(-c2cccc(F)c2)sc1C(=O)N[C@H]1CCCNC1 [AZD-7762] , please?
4

Using the record for CN(C)C(=O)N[C@H]1CC[C@H](CCN2CCN(c3cccc(Cl)c3Cl)CC2)CC1.Cl [CARIPRAZINE HYDROCHLORIDE] , report its Population Mitochondria Different-Phenotype (%).
20

From: ChEMBL document CHEMBL4689842
